Tested on: HCT-116 cells
Experiment: HCT-116 Cell Proliferation Assay
Assay type: cell-based
Conditions: Homo sapiens; Table 2, inhibition of cell proliferation; read-out: HCT-116
Protocol: HCT-116 cells (catalog #CCL-247) are obtained from the American Type Culture Collect (ATCC, Manassas, VA). […] Plates are read on a Synergy2 or equivalent reader (Biotek, Winooski, VT) using an excitation of 540 nm and an emission of 600 nm. Data is analyzed using Prism software (Graphpad, San Diego, CA) to calculate IC50 values.
pIC50: −log10 of the molar value.
test_readout: pIC50

Cc1ccc(NC(=O)Nc2cccnc2)cc1-c1cc(OCCO)nc(N2CCOCC2)c1 [Example 28]; 5.00 to 6.00
CNc1cc(-c2cc(-c3cc(NC(=O)Nc4ccc(C(F)(F)F)nc4)ccc3C)ccn2)ccn1 [Example 19]; 6.30 to 7.00
CC(=O)Nc1cc(-c2cc(-c3cc(NC(=O)Nc4ccc(C(F)(F)F)nc4)ccc3C)cc(=O)n2C)ccn1 [Example 7]; 5.00 to 6.00

I have this compound here, Cc1ccc(NC(=O)Nc2ccc(C(F)(F)F)nc2)cc1-c1cc(OC[C@H](C)O)nc(N2CCOCC2)c1 [Example 39] , and I need its recorded pIC50.
> 7.00

I have this compound here, Cc1ccc(NC(=O)Nc2ccc(C(F)(F)F)nc2)cc1-c1cncc(-c2ccnc(NC(=O)CC#N)c2)n1 [Example 14] , and I need its recorded pIC50.
5.00 to 6.00

I have this compound here, CC(=O)Nc1cc(-c2cc(-c3cc(NC(=O)Nc4ccc(C(F)(F)F)nc4)ccc3C)cn(C)c2=O)ccn1 [Example 9] , and I need its recorded pIC50.
> 7.00

I have this compound here, CNC(=O)c1cc(-c2cc(-c3cc(NC(=O)Nc4ccc(C(F)(F)F)nc4)ccc3C)ccn2)ccn1 [Example 20] , and I need its recorded pIC50.
> 7.00
